Listed compounds paired with reported inhibition at 0.1 µM
# TEST TARGET: PDGFRA (PDGFR alpha) (Homo sapiens)
# Construct: purchased Invitrogen
# Sequence (P16234 24-1089): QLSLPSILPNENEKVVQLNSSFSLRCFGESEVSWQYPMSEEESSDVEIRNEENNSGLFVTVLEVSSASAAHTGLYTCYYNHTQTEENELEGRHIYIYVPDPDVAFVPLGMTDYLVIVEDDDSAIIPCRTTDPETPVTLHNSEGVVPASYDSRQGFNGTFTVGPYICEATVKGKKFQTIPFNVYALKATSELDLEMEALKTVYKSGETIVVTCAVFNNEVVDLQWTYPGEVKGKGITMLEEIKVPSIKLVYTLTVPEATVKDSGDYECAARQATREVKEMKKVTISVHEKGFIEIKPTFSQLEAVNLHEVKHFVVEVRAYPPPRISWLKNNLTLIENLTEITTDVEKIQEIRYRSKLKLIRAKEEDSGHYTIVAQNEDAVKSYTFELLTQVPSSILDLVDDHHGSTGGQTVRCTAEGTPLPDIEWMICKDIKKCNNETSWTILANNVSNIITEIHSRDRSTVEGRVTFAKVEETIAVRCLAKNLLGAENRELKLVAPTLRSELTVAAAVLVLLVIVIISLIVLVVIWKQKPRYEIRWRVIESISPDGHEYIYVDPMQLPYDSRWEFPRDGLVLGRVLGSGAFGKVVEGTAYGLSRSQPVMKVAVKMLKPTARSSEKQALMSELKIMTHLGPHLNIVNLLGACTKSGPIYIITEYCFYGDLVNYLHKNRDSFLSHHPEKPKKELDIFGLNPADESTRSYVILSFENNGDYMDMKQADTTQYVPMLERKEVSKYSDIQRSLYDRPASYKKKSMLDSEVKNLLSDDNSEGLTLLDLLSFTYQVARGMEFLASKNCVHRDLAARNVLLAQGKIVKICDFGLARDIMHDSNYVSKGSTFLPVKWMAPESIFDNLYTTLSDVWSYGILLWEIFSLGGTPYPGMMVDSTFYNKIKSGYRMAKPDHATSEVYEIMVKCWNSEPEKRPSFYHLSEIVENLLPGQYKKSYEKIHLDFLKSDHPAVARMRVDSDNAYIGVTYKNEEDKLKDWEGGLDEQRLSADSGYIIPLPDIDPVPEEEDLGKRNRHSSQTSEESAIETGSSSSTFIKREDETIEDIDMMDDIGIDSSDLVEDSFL
# ASSAY: In vitro kinase assay (Z'-LYTE, Invitrogen)
# Format: biochemical
# CONDITION SUMMARY: compound at 100 nM, ATP Km apparent, read-out: % of inhibition of the kinase compared to the control

>>> df
                                   compound     observed_property  value
0  COC(=O)c1cc2cc(CCc3cc(NC(=O)Nc4cccc(C(F)(F)F)c4)ccc3C)cnc2[nH]1 [OR0918]  inhibition at 0.1 µM  ≥ 50%
1  COC(=O)c1cc2cc(CNC(=O)c3cc(NC(=O)c4ccc(CN5CCC(N(C)C)C5)c(C(F)(F)F)c4)ccc3C)cnc2[nH]1 (stereo not drawn) [OR0726]  inhibition at 0.1 µM  < 50%
2  CC(=O)c1cc2cc(CCc3cc(NC(=O)c4ccc(CN5CC[C@H](N(C)C)C5)c(C(F)(F)F)c4)ccc3C)cnc2[nH]1 [OR0812]  inhibition at 0.1 µM  ≥ 50%

[Q] Output reported inhibition at 0.1 µM of the compound CC(=O)c1cc2cc(CCc3cc(NC(=O)c4ccc(CN5CCC(N(C)C)C5)c(C(F)(F)F)c4)ccc3C)cnc2[nH]1 (stereo not drawn) [OR0798] on PDGFRA (PDGFR alpha) (Homo sapiens).
[A] ≥ 50%

[Q] Output reported inhibition at 0.1 µM of the compound CC(=O)c1cc2cc(C(=O)Nc3cc(NC(=O)c4cc(-n5cnc(C)c5)cc(C(F)(F)F)c4)ccc3C)cnc2[nH]1 [OR0723] on PDGFRA (PDGFR alpha) (Homo sapiens).
[A] < 50%

[Q] Output reported inhibition at 0.1 µM of the compound COC(=O)c1cc2cc(CNC(=O)c3cc(NC(=O)c4ccc(CN5CCN(C)CC5)c(C(F)(F)F)c4)ccc3C)cnc2[nH]1 [OR0728] on PDGFRA (PDGFR alpha) (Homo sapiens).
[A] ≥ 50%

[Q] Output reported inhibition at 0.1 µM of the compound COC(=O)c1cc2cc(CCc3cccc(NC(=S)Cc4cccc(C(F)(F)F)c4)c3)cnc2[nH]1 [OR1014] on PDGFRA (PDGFR alpha) (Homo sapiens).
[A] < 50%

[Q] Output reported inhibition at 0.1 µM of the compound COC(=O)c1cc2cc(COc3cc(NC(=O)c4ccc(CN5CCC(N(C)C)C5)c(C(F)(F)F)c4)ccc3C)cnc2[nH]1 (stereo not drawn) [OR0750] on PDGFRA (PDGFR alpha) (Homo sapiens).
[A] ≥ 50%

====

# TEST TARGET: EGFR (ErbB1) (Homo sapiens, UniProt P00533)
# Construct: purchased Invitrogen
# Sequence (P00533 25-1210): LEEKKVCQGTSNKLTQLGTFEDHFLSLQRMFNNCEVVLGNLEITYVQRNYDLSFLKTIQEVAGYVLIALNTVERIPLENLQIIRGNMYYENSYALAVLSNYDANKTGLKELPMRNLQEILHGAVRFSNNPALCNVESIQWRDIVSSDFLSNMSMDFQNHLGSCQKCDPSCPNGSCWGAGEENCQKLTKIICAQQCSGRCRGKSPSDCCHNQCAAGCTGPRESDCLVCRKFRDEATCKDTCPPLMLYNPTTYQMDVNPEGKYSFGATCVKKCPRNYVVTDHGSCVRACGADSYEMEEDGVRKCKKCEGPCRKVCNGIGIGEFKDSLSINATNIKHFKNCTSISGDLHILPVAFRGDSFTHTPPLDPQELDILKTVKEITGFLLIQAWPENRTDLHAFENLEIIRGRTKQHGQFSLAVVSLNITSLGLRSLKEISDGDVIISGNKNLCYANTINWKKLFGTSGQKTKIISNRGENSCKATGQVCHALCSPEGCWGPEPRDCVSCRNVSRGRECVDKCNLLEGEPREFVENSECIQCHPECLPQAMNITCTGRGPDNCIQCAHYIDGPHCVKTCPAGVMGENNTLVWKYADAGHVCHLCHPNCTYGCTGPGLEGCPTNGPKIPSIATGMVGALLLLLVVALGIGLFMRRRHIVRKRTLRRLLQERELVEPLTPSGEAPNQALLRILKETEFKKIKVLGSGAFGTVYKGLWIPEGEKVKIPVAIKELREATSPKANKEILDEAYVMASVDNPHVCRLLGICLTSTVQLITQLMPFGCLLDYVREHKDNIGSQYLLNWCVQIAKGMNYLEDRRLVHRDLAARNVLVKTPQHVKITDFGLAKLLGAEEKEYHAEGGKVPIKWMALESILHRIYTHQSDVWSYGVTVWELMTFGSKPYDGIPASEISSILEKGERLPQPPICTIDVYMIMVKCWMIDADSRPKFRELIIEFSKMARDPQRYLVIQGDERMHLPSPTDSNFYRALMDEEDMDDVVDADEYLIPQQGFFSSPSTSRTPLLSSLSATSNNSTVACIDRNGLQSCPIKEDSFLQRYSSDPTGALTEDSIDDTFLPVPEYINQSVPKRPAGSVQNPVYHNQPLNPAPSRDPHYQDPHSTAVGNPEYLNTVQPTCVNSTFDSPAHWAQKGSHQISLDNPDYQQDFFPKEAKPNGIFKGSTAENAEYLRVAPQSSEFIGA
# ASSAY: In vitro kinase assay (Z'-LYTE, Invitrogen)
# Format: biochemical
# CONDITION SUMMARY: compound at 100 nM, ATP Km apparent, read-out: % of inhibition of the kinase compared to the control
# Procedure: The inhibitory activity of the compounds on 7 kinases (BRAF, EGFR (ErbB1), EGFR (ErbB1) T790M L858R, FGFR2, KDR (VEGFR2), PDGFRA (PDGFR alpha), SRC) was evaluated by Invitrogen using the Z′-LYTE® technology. Briefly, the Z′-LYTE® biochemical assay employs a fluorescence-based, coupled-enzyme format and is based on the differential sensitivity of phosphorylated and non-phosphorylated peptides to proteolytic cleavage. […]
OBSERVED PROPERTY: inhibition at 0.1 µM

Some entries whose results are on file:
>>> print(df.to_string())
                                   compound                               test_target  value
0  COC(=O)c1cc2cc(CNc3cc(NC(=O)c4ccc(CN5CCN(C)CC5)c(C(F)(F)F)c4)ccc3C)cnc2[nH]1  EGFR (ErbB1) (Homo sapiens, UniProt P00533)  ≥ 50%
1  COC(=O)c1cc2cc(COc3cc(NC(=O)c4ccc(CN5CCN(C)CC5)cc4)ccc3C)cnc2[nH]1  EGFR (ErbB1) (Homo sapiens, UniProt P00533)  ≥ 50%
2  COC(=O)c1cc2cc(CNC(=O)c3cc(NC(=O)c4ccc(CN5CCC(N(C)C)C5)c(C(F)(F)F)c4)ccc3C)cnc2[nH]1 (centres unmarked)  EGFR (ErbB1) (Homo sapiens, UniProt P00533)  < 50%

[Q] Output reported inhibition at 0.1 µM of the compound CC(=O)c1cc2cc(CCc3cc(NS(=O)(=O)c4cccc(C(F)(F)F)c4)ccc3C)cnc2[nH]1 on EGFR (ErbB1) (Homo sapiens, UniProt P00533).
[A] < 50%
